Biological target: Mitogen-activated protein kinase 9 (Homo sapiens) (UniProt P45984);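 note: values are mean inhibition of JNK2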
Sequence (P45984 whole entry, looked up): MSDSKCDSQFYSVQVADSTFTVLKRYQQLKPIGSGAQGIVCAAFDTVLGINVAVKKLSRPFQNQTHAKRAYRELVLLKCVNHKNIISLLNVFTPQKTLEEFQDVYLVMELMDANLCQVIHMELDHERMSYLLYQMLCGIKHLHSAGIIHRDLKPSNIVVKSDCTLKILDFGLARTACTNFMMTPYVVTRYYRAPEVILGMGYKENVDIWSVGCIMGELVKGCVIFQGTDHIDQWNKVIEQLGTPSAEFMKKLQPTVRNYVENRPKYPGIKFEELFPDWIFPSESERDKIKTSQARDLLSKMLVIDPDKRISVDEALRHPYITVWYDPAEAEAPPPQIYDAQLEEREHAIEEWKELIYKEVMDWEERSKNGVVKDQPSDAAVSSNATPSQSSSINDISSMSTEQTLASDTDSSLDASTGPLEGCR
Details: at 0.1 µM
Threshold rule: inhibition greater than or equal to 2% is met; below that, not met.

Study these solved cases before continuing.
In [3]: df
Out[3]:
                                smilesentry  answerlabel
0  CCCN1CCC(Oc2cc(Nc3nc(Nc4cccc(F)c4C(N)=O)c4cc[nH]c4n3)c(OC)cc2Cl)CC1      not met
1             COc1ccccc1Nc1ncc(-c2ccccc2)o1          met
2  O=C1Nc2ccc(C(=O)c3ccco3)cc2C1=Cc1cc(Cl)c(O)c(Cl)c1          met
3  O=C1NC(=O)C(N2CCc3ccccc32)=C1c1ccc(Cl)cc1          met

Query block: Test whether the compound COc1cc(C=NNc2ncnc3c2cnn3-c2ccccc2)ccc1O records inhibition of 2% or higher.
Result block: met

Query block: Test whether the compound N#Cc1c(NC(=O)c2cccc3ccccc23)sc2c1CCCC2 records inhibition of 2% or higher.
Result block: met

---

Biological target: Homeodomain-interacting protein kinase 4 (Homo sapiens);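 note: values are mean percent inhibition of HIPK4 from the GSK PKIS kinase screen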
Sequence (whole entry): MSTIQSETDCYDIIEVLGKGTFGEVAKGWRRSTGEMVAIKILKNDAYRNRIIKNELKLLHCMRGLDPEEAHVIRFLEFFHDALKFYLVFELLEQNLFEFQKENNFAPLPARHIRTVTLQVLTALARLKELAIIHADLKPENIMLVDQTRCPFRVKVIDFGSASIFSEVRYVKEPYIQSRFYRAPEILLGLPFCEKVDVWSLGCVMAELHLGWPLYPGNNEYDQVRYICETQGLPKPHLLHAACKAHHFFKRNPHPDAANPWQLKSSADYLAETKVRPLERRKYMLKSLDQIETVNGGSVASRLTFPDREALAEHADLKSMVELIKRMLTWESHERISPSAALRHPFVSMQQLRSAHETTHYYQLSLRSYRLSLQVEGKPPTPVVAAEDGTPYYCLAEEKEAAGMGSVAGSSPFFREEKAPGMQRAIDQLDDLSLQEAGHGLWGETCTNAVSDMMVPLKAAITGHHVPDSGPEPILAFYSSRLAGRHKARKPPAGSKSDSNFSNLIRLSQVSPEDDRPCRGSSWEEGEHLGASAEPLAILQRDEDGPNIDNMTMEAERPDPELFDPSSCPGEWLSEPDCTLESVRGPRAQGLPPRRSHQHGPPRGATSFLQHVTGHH
Settings: at 1 µM
Examples of molecules with documented inhibition follow.
Use % as the unit, but write only the number.

In [3]: df
Out[3]:
                                smilesentry  endpointresult
0  CCc1cccc(NC(=O)Nc2ccc(Oc3ccc4nc(NC(=O)OC)[nH]c4c3)cc2)c1            13.9
1      CNC(=O)c1cncc(/C=C/c2c(Cl)cccc2Cl)c1            7.87
2  COC(=O)Nc1nc2cc(Oc3ccc(NC(=O)Nc4cccc(C(=O)O)c4)cc3)ccc2[nH]1            3.06
3  CS(=O)(=O)CCNCc1ccc(-c2ccc3ncnc(Nc4ccc(OCc5ccccc5)c(Cl)c4)c3c2)o1            7.49
4  CCn1c(-c2nonc2N)nc2c(C#CC(C)(C)O)nc(CN3CCCC3)cc21            0.75
5  NC(=O)c1cccc(Nc2nccc(Nc3cccc4[nH]ncc34)n2)c1            21.2
6      Nc1nc(-c2ccccn2)c(-c2ccc3ncccc3n2)s1            10.1
7               COc1ccc(-c2ccncc2)cc1C(N)=O            4.19

Query block: Form field: reported inhibition of Nc1ncnc2occ(-c3ccc(NC(=O)Nc4cc(C(F)(F)F)cc(C(F)(F)F)c4)cc3)c12
Result block: 63.3

Query block: Form field: reported inhibition of CC(=O)Nc1cccc(C#Cc2cncnc2Nc2ccc(OCc3cccc(F)c3)c(Cl)c2)n1
Result block: 1.32

Query block: Form field: reported inhibition of O=C1NC(=O)C(c2ccccc2Cl)=C1Nc1cccc(O)c1
Result block: 3.38
